The origin of these recorded values is PubChem BioAssay (NCI).

Test system: XF 498 CNS
methodSummary: NCI tumour cell line growth inhibition, 48 h
endpoint: TGI

Here are 5 compounds together with their reported answers.
compound	valueObserved
CP(=O)(CCSc1ccccc1)c1ccccc1 (centres undefined)	> 100 µM
CCOP(=O)(C/C(=N/NC(C)(C)C)C(=O)Nc1nc2ccc(C)cc2s1)OCC	> 100 µM
CCCN(CCC)C(=O)Cc1c2n(c3ccccc13)CCCc1ccccc1-2	28.8 µM
COc1cc(C(C)c2cc3c(cc2OCCOCCOc2cc4c(cc2C(C)c2cc(OC)c(OC)c(OC)c2)OCO4)OCO3)cc(OC)c1OC (centres undefined)	> 10 µM
COC(=O)/C=C\C1C(C(=O)OC)C2(C(=O)OC)CCC1(C(=O)OC)N2 (centres undefined)	34.3 µM

Hi! Can you tell me TGI for each of these compounds?
1. c1ccc(SCCP(CCP(c2ccccc2)c2ccccc2)c2ccccc2)cc1 (centres undefined)
2. N#CC(C(=N/NC(N)=S)/C(=N\NC(N)=S)C(C#N)c1ccccc1)c1ccccc1 (centres undefined)
3. CC(C)[C@H](COC(C)(C)C)N=CN1CSc2ccccc21
4. c1ccc2c(c1)[Se]c1ccccc1[Se]2
5. CCC(=O)NCC1(c2c[nH]c3ccccc23)SCCS1
6. O=C(O/N=C1/CCC/C1=C\c1ccccc1)c1ccc(Cl)cc1
7. O=S(O)CCCCSSCCCCS(=O)(O)=S

## Result
1. 8.15 µM
2. > 10 µM
3. 47.8 µM
4. > 100 µM
5. > 100 µM
6. > 100 µM
7. 33.2 µM
